The values you see were collected from PubChem BioAssay (NCI).

tested on: COLO 205 colon; experiment: NCI tumour cell line growth inhibition, 48 h
Below: a set of entries, each annotated with reported TGI.

Below, each entry is followed by its recorded TGI result.
COc1cc2c(c3c1c(=O)c1ccccc1n3C)C=CC1(CCCC1)O2 :: 27.6 µM
Fc1ccc(C(OCCN2CCN(CCCc3ccccc3)CC2)c2ccc(F)cc2)cc1 :: 10.1 µM
CN(C(=O)/C=C/c1ccccc1)C1C2CN3CCC(O2)C13 (stereo not drawn) :: > 100 µM
O=C(O)c1nc(NCc2nc3cc(Cl)ccc3o2)n[nH]1 :: > 100 µM
CCCCCOc1ccc(C=Nc2ccc(CCc3ccc(N=Cc4ccc(OCCCCC)cc4)cc3)cc2)cc1 :: > 100 µM

// query Look at this molecule and give its reported TGI. Cc1c(/C=N/NC(=O)c2ccccc2O)c(=O)n(-c2ccccc2)n1C
// result > 100 µM

// query If you can, please state the reported TGI value of CN(C)CCNC(=O)Cn1ccc(=O)c2cc([N+](=O)[O-])ccc21 .
// result > 100 µM

// query # query: TGI of entry O=S(=O)(/N=c1\scc(-c2ccccc2)n1-c1ccccc1)c1ccc(N2N=C3c4ccccc4CC3C2c2ccc(Cl)cc2)cc1 (stereo not drawn)
// result 54.9 µM

// query Which TGI value is on record for C=CCOC(=O)N1c2ccc(O[Si](C)(C)C(C)(C)C)cc2[C@@]23O[C@@]24[C@@H]1C#C/C=C\C#C[C@]3(O)C(OC)(OC)C[C@@H]4C ?
// result > 100 µM

// query Need TGI, item O=C(O)CCc1nc2c(n1-c1ccccc1)C(=O)c1ccccc1C2=O
// result > 100 µM

// query Given the molecule CC(CO)Nc1cc(-c2[nH]c3cccnc3c2-c2ccc(F)cc2)ccn1 (stereo not drawn) , what is its reported TGI?
// result > 25 µM

// query Looking for the measured TGI of Cc1ccc2c(c1)-c1nc(N)c(C#N)c(-c3ccc(Cl)cc3)c1CCS2(=O)=O , can you help?
// result 65.6 µM

// query Quick one: TGI of CCC/C(Cl)=N\OC(=O)Nc1ccc(F)cc1 ?
// result 8.97 µM

// query # get_value(readout='TGI', item= [N-]=[N+]=Nc1c(Cc2ccccc2)c(Cl)nc2ccccc12 )
// result 35.2 µM

// query Field request: TGI | item: O=C(/C=C/c1ccccc1)Oc1cccc2cccnc12
// result 21.1 µM

// query Could you share which TGI value was measured for O=C1c2cccc([N+](=O)[O-])c2C(=O)N1Cc1ccccc1 ?
// result > 100 µM

// query Recorded TGI for COC(=O)[C@H]1C=NN[C@@H]1C(=O)N1[C@H]2CC3CC[C@@]2(CS1(=O)=O)C3(C)C , please?
// result > 100 µM

// query Given CC(C)(C)c1ccc(OCCOc2ccc(C(C)(C)C)cc2N)c(N)c1 , state its recorded TGI.
// result > 100 µM

// query Can you share its TGI? I mean this molecule: COc1cccc(N2C(=O)CSC2c2cccc(Oc3ccccc3)c2)c1 (stereo not drawn)
// result 10.2 µM

// query May I ask what TGI has been recorded for CC(=O)Nc1ccc(-c2cc(C(=O)O)c3cc4ccccc4cc3n2)cc1 ?
// result > 100 µM

// query Entry C[C@H](c1ccccc1)N1C(=O)[C@@H](O)[C@H]1[C@H](CO)OCc1ccccc1 : reported TGI = ?
// result > 100 µM

// query Sample Cc1cc(C)nc(NS(=O)(=O)c2ccc(NC(=O)c3c4ccccc4nc4ccccc34)cc2)n1 — what was its TGI?
// result > 100 µM

// query Requested field: TGI. Item: O=C(O)CC(Cc1ccccc1Cl)C(=O)O (stereo not drawn)
// result > 100 µM

// query # query: TGI of entry NC(=O)Nc1c(Cl)cc(S(N)(=O)=O)cc1Cl
// result > 100 µM

// query # input molecule: NC(=O)CNC(=O)[C@@H]1CC(OCCC(=O)O)CN1C(=O)C1CCCN1C(=O)OCc1ccccc1 (stereo partly drawn) ; wanted: its TGI
// result > 100 µM
